assay: Plasma levels after oral administration to Wistar rats; type: in vivo, rat; conditions: male, rat, plasma, po; p.o. 145 mg kg-1, Wistar rats, mean ± SEM, n = 9; read-out: Prodrug Conc in plasma, 15 min
reported-property: concentration at 15 min (nM)
Respond numerically; units are nM and should not be typed.

| compound | reported-property | unit-label | result-value |
| --- | --- | --- | --- |
| CCCCCCCCCCCCCCCC(=O)NCCOC(=O)[C@@H](N)C(C)C.Cl [compound 20] | concentration at 15 min | nM | 612 |

Now examine the next entry.
Suppose we examine the compound CCCCCCCCCCCCCCCC(=O)NCCOC(=O)[C@H](N)C(C)C.Cl [compound 28] ; what concentration at 15 min value has been reported? 907
